The reported numbers originate from the supplement of paper PMC11246515.

assayProtocol: total protein half-life in vivo (active degradation + dilution); higher = more stable protein
conditionsUsed: wild type E. coli NCM3722; growth: C-lim chemostat; doubling time 3 h
Reported total protein half-life in vivo values for the following sequences.
experimentalReadout: total protein half-life in vivo (h)

| itemSequence | measuredResult |
| --- | --- |
| MSIISTKYLLQDAQANGYAVPAFNIHNAETIQAILEVCSEMRSPVILAGTPGTFKHIALEEIYALCSAYSTTYNMPLALHLDHHESLDDIRRKVHAGVRSAMIDGSHFPFAENVKLVKSVVDFCHSQDCSVEAELGRLGGVEDDMSVDAESAFLTDPQEAKRFVELTGVDSLAVAIGTAHGLYSKTPKIDFQRLAEIREVVDVPLVLHGASDVPDEFVRRTIELGVTKVNVATELKIAFAGAVKAWFAENPQGNDPRYYMRVGMDAMKEVVRNKINVCGSANRISA [P0AB74] | 2.35 |
| MRMNVFEMEGFLRGKCVPRDLKVNETNAEYLVRKFDALEAKCAALENKIIPVSAELPPANESVLLFDANGEGWLIGWRSLWYTWGQKETGEWQWTFQVGDLENVNITHWAVMPKAPEAGA | 2.52 |
| MIQPISGPPPGQPPGQGDNLPSGTGNQPLSSQQRTSLESLMTKVTSLTQQQRAELWAGIRHDIGLSGDSPLLSRHFPAAEHNLAQRLLAAQKSHSARQLLAQLGEYLRLGNNRQAVTDYIRHNFGQTPLNQLSPEQLKTILTLLQEGKMVIPQPQQREATDRPLLPAEHNALKQLVTKLAAATGEPSKQIWQSMLELSGVKDGELIPAKLFNHLVTWLQARQTLSQQNTPTLESLQMTLKQPLDASELAALSAYIQQKYGLSAQSSLSSAQAEDILNQLYQRRVKGIDPRVMQPLLNPFPPMMDTLQNMATRPALWILLVAIILMLVWLVR | 2.64 |
